FYI, the data here is from paper PMC6470795.

Attribute: melting point

Take a look at these entries with their results.
# input Name the reported melting point value associated with the compound CC(c1cccc(-c2ncc(OCCN(C)C)cn2)c1)n1cc(-c2cccc(C#N)c2)cnc1=O (stereo not drawn) [Compound 31d]
# output 53.3 to 55 °C

# input So what does the record say about melting point for CC(c1cccc(-c2ncc(OCC3CCN(C)CC3)cn2)c1)n1cc(-c2cccc(C#N)c2)cnc1=O (stereo not drawn) [Compound 31e] ?
# output 98.2 to 99.9 °C

# input Which measured melting point value corresponds to `CN1CCC(COc2cnc(-c3cccc(Cn4cc(-c5cccc(C#N)c5)cnc4=O)c3)nc2)CC1` ?
# output 116.7 to 118.2 °C

# input I am curious: what melting point value has been reported for CC(c1cccc(-c2ncc(OCCCN(C)C)cn2)c1)n1cc(-c2cccc(C#N)c2)cnc1=O (stereo not drawn) [Compound 31c] ?
# output 68.3 to 69.9 °C

For the next question, use this compound.
# input Recorded melting point of CN(C)CCCSc1cnc(-c2cccc(Cn3cc(-c4cncc(F)c4)cc(F)c3=O)c2)nc1 [Compound 36b] , please.
# output 128.3 to 129.9 °C

----------
biological target: c-Met enzyme (Homo sapiens, UniProt P08581)
Sequence (P08581 25-1390): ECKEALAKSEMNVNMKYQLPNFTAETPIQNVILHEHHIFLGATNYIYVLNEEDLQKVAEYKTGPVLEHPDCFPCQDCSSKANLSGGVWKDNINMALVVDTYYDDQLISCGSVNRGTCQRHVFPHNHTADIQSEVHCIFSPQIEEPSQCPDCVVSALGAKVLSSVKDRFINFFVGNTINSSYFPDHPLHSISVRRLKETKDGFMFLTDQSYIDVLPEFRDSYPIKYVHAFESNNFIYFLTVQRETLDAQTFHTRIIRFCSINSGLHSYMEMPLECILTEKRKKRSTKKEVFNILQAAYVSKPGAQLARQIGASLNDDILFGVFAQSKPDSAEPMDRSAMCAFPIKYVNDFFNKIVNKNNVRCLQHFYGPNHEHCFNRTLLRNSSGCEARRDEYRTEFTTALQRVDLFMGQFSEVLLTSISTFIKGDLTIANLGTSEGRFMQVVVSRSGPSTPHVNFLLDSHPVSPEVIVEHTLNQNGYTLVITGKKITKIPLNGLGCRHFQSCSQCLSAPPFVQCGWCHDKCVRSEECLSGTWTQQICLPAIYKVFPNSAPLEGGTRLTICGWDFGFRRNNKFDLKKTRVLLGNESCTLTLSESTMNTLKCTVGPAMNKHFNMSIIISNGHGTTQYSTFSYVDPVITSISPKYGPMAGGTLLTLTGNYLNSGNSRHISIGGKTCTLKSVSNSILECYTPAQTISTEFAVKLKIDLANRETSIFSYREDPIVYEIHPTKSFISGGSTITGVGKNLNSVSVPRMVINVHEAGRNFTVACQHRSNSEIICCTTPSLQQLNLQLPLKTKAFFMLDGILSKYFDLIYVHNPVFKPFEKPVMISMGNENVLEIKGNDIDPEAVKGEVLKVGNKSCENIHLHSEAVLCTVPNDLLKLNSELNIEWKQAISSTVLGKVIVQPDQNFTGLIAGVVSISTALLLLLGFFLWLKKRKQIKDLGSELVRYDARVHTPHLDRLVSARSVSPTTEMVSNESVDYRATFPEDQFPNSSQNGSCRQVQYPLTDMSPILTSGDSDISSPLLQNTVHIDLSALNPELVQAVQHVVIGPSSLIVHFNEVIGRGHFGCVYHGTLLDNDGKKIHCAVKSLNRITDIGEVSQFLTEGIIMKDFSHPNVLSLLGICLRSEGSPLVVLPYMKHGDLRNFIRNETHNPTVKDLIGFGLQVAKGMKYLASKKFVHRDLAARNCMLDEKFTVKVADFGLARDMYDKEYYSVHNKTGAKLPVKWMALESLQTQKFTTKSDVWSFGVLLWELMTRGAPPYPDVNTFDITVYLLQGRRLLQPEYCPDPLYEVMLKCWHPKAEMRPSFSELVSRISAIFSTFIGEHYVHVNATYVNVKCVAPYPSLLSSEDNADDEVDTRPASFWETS
Recorded endpoint: IC50 (nM)
Report the figure in nM without appending any unit label.

# input # get_value(readout='IC50', item= CC(c1cccc(-c2ncc(OCC3CCN(C)CC3)cn2)c1)n1cc(-c2cccc(C#N)c2)cnc1=O (stereo not shown) [Compound 31e] )
# output 32

----------
Recorded endpoint: melting point

Examples with their reported melting point follow.
# input Any idea what its melting point is? The compound is CN(C)CCCSc1cnc(-c2cccc(Cn3cc(-c4cccc(C#N)c4)cc(F)c3=O)c2)nc1 [Compound 36a]
# output 116.3 to 117.9 °C

# input Param item = CN(C)CCCSc1cnc(-c2cccc(Cn3cc(-c4cccc(C#N)c4)ncc3=O)c2)nc1 [Compound 11a] ; retrieve measured melting point.
# output 106.3 to 107.9 °C

# input Which melting point is listed for CN(C)CCCSc1cnc(-c2cccc(Cn3cc(-c4cc(F)cc(F)c4)ncc3=O)c2)nc1 [Compound 11b] ?
# output 143.7 to 145.2 °C

New cases:
# input Fill in the blank: the reported melting point of CC(c1cccc(-c2ncc(OCC3CCN(C)CC3)cn2)c1)n1cc(-c2cc(F)cc(F)c2)cnc1=O (stereo not shown) [Compound 31g] is ____.
# output 86.9 to 88.6 °C
